Assay: Phase I trial: clinical pharmacokinetics in plasma
Type: in vivo, human
Conditions: human, plasma, oral, 30 mg, Single dose day 1, 30 mg, n=1
measured.parameter: AUC(0-inf)
Please provide the amount together with its unit, number first.

Per the records, this molecule ( `Cc1c(C(=O)Nc2ccc(Oc3ccnc4cc(OCC(C)(C)O)ccc34)c(F)c2)c(=O)n(-c2ccccc2)n1C` ) has AUC(0-inf) equal to 29900 ng·h/mL

====

Assay: Phase I trial: clinical pharmacokinetics in plasma
Type: in vivo, human
Settings: human, plasma, oral, 100 mg, Multiple doses day 28, 100 mg, n=5, Geometric Mean (CV%)
measured.parameter: Cmax (ng/mL)
One number for each entry, in ng/mL.

Per the records, this molecule ( `Cc1c(C(=O)Nc2ccc(Oc3ccnc4cc(OCC(C)(C)O)ccc34)c(F)c2)c(=O)n(-c2ccccc2)n1C` ) has Cmax equal to 4330

====

Target sequence: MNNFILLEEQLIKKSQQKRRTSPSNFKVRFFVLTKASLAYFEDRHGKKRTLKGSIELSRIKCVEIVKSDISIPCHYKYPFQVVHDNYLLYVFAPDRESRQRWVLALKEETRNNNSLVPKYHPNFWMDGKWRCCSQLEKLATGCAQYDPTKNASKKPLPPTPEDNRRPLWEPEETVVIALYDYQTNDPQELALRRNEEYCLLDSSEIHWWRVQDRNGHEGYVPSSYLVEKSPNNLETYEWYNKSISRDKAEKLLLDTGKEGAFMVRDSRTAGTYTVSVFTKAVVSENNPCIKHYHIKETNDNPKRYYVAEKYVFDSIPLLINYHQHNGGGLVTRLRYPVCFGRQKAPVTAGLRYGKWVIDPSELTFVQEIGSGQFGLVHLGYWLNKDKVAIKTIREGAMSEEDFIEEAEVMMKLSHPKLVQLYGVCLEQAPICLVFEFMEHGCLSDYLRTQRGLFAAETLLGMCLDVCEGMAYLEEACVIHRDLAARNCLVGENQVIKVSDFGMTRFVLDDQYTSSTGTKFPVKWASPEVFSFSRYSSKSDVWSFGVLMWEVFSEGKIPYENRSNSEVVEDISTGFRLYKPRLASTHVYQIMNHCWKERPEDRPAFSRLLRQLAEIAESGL
measured.parameter: pIC50
Answers are plain numbers, as −log10 of the molar value.

Per the records, this molecule ( Cc1c(C(=O)Nc2ccc(Oc3ccnc4cc(OCC(C)(C)O)ccc34)c(F)c2)c(=O)n(-c2ccccc2)n1C [CT053] ) has pIC50 equal to 6.62

====

Experiment: Phase I trial: clinical pharmacokinetics in plasma
Type: in vivo, human
Details: human, plasma, oral, 150 mg, Single dose day 1, 150 mg, n=4, Geometric Mean (CV%); read-out: Vz/F
Description: A clinical pharmacokinetic study of CT053PTSA was performed for both single doses and multiple doses. […] Statistical analysis of CT053-treated tumors versus vehicle-treated tumors or versus nontreated tumors was performed by repeated-measures ANOVA. The data from the tumor xenograft models were expressed as the means ± standard error of the mean (SEM) and were plotted as a function of time. […]
measured.parameter: Vd/F (L)
Numbers only, in L.

Per the records, this compound ( `Cc1c(C(=O)Nc2ccc(Oc3ccnc4cc(OCC(C)(C)O)ccc34)c(F)c2)c(=O)n(-c2ccccc2)n1C` ) has Vd/F equal to 99.8

====

Assay: Phase I trial: clinical pharmacokinetics in plasma
Format: in vivo, human
Conditions: human, plasma, oral, 100 mg, Multiple doses day 28, 100 mg, n=5, Geometric Mean (CV%); read-out: AUC0-168
measured.parameter: AUC(0-t) (µg·h/mL)
Numbers only, in µg·h/mL.

Per the records, this molecule ( `Cc1c(C(=O)Nc2ccc(Oc3ccnc4cc(OCC(C)(C)O)ccc34)c(F)c2)c(=O)n(-c2ccccc2)n1C` ) has AUC(0-t) equal to 146

====

Assay: Phase I trial: clinical pharmacokinetics in plasma
Format: in vivo, human
Settings: human, plasma, oral, 15 mg, Single dose day 1, 15 mg, n=1; read-out: Tmax
measured.parameter: Tmax (h)
Answers are plain numbers, in h.

Per the records, this molecule ( Cc1c(C(=O)Nc2ccc(Oc3ccnc4cc(OCC(C)(C)O)ccc34)c(F)c2)c(=O)n(-c2ccccc2)n1C [CT053PTSA] ) has Tmax equal to 3

====

Assay: Phase I trial: clinical pharmacokinetics in plasma
Format: in vivo, human
Conditions: human, plasma, oral, 100 mg, Single dose day 1, 100 mg, n=7, Mean ± SD; read-out: T1/2 (converted)
measured.parameter: half-life (h)
Answers are plain numbers, in h.

Per the records, this compound ( `Cc1c(C(=O)Nc2ccc(Oc3ccnc4cc(OCC(C)(C)O)ccc34)c(F)c2)c(=O)n(-c2ccccc2)n1C` ) has half-life equal to 32.8

====

Assay: Phase I trial: clinical pharmacokinetics in plasma
Type: in vivo, human
Settings: human, plasma, oral, 60 mg, Single dose day 1, 60 mg, n=5, Geometric Mean (CV%)
measured.parameter: Cmax (ng/mL)
Answers are plain numbers, in ng/mL.

Per the records, this molecule ( Cc1c(C(=O)Nc2ccc(Oc3ccnc4cc(OCC(C)(C)O)ccc34)c(F)c2)c(=O)n(-c2ccccc2)n1C [CT053PTSA] ) has Cmax equal to 1340

====

Tested on: GTL16
Test: Cell proliferation assay (CellTiter-Glo, 72 hours)
Format: cell-based
Conditions: Homo sapiens, GTL 16, read-out: IC50 anti-proliferative
measured.parameter: pIC50
One number for each entry, as −log10 of the molar value.

Per the records, this compound ( Cc1c(C(=O)Nc2ccc(Oc3ccnc4cc(OCC(C)(C)O)ccc34)c(F)c2)c(=O)n(-c2ccccc2)n1C [CT053] ) has pIC50 equal to 6.77

====

Assay: Phase I trial: clinical pharmacokinetics in plasma
Assay type: in vivo, human
Conditions: human, plasma, oral, 60 mg, Multiple doses day 28, 60 mg, n=3, Geometric Mean (CV%)
measured.parameter: AUC(0-inf) (ng·h/mL)
One number for each entry, in ng·h/mL.

Per the records, this compound ( `Cc1c(C(=O)Nc2ccc(Oc3ccnc4cc(OCC(C)(C)O)ccc34)c(F)c2)c(=O)n(-c2ccccc2)n1C` ) has AUC(0-inf) equal to 91100

====

Tested on: HUVECs
Test: Endothelial cell tubule formation assay, HGF-induced
Type: cell-based
Conditions: Homo sapiens, HUVEC; HGF 45 ng/ml, 8 hours; read-out: IC50, percentage area of tube formation (+ HGF)
measured.parameter: pIC50
One number for each entry, as −log10 of the molar value.

Per the records, this compound ( `Cc1c(C(=O)Nc2ccc(Oc3ccnc4cc(OCC(C)(C)O)ccc34)c(F)c2)c(=O)n(-c2ccccc2)n1C` ) has pIC50 equal to 6.51

====

Target: FLT1 (Homo sapiens, UniProt P17948)
Sequence (P17948 27-1338): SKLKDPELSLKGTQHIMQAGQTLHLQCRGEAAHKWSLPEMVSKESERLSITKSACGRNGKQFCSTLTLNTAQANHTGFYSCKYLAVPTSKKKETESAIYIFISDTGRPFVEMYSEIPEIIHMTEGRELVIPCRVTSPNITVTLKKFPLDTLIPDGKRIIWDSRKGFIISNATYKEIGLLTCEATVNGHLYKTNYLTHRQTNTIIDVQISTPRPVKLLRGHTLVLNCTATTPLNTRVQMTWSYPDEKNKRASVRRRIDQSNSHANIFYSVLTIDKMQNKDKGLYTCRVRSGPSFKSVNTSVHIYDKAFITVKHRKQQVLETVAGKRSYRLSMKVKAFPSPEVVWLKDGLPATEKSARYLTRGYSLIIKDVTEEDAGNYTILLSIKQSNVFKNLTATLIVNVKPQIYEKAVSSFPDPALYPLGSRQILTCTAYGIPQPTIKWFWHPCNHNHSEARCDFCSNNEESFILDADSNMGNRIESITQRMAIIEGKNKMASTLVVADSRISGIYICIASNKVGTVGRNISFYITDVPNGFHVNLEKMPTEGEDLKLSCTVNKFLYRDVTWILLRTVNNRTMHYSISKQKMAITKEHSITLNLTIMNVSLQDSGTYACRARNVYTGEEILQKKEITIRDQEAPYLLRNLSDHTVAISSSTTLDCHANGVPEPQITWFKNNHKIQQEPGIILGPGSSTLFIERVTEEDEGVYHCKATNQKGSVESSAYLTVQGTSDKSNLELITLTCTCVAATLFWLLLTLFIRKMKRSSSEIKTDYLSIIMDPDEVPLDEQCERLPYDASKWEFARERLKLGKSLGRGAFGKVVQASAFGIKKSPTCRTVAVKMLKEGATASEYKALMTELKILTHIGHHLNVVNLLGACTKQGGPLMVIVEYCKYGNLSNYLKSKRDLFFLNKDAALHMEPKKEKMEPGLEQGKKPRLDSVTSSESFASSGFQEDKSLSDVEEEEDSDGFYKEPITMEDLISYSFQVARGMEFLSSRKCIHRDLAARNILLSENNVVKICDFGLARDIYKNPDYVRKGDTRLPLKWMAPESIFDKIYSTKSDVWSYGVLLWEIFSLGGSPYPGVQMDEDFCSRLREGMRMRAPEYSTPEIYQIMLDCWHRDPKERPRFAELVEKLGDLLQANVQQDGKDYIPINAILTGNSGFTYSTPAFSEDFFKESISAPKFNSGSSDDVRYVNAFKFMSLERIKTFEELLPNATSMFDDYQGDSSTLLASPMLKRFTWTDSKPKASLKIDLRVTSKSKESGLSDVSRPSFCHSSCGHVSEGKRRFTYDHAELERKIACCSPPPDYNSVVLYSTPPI
measured.parameter: pIC50
Numbers only, as −log10 of the molar value.

Per the records, this compound ( Cc1c(C(=O)Nc2ccc(Oc3ccnc4cc(OCC(C)(C)O)ccc34)c(F)c2)c(=O)n(-c2ccccc2)n1C [CT053] ) has pIC50 equal to 5.21

====

Molecular target: FLT3 (Homo sapiens)
Sequence (P36888 27-993): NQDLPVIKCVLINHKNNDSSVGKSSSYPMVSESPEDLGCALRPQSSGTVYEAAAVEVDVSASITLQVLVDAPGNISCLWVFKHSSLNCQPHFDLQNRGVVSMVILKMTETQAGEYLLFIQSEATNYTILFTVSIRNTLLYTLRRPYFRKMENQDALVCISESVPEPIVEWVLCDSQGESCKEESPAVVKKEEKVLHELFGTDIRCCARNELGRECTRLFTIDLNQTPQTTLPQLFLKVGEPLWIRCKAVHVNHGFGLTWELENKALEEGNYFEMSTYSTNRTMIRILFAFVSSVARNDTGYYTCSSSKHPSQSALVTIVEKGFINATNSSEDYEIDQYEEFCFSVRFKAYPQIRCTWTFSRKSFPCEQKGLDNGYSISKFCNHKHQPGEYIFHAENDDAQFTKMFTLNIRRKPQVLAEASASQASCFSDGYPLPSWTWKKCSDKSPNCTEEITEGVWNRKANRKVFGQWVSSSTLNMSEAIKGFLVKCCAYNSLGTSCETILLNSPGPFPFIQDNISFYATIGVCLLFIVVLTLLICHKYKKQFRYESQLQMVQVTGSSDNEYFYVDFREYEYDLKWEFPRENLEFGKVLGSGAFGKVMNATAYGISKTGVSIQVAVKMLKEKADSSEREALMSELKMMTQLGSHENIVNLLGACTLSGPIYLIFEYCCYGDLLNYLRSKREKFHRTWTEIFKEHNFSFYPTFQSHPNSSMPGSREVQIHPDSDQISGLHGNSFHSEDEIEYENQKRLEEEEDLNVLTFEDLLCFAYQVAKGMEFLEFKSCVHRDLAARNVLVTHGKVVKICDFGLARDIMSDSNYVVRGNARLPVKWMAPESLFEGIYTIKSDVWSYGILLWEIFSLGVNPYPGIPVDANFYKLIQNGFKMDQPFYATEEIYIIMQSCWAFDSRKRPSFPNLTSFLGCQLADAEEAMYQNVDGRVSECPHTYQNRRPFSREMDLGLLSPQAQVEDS
Assay: Cellular kinase phosphorylation assay (sandwich ELISA), FLT3-wt-MEFs, FLT3-ligand stimulated
Format: cell-based
Design: MEFs expressing full-length human FLT3 (FLT3-wt-MEFs); expressed in transfected cells; host or cells: mouse embryonic fibroblasts (MEFs)
Conditions: FLT3-ligand 50 ng/ml
measured.parameter: pIC50
Numbers only, as −log10 of the molar value.

GET /values?item= `Cc1c(C(=O)Nc2ccc(Oc3ccnc4cc(OCC(C)(C)O)ccc34)c(F)c2)c(=O)n(-c2ccccc2)n1C` &system= FLT3 (Homo sapiens) returns pIC50: 8.82

====

Assay: Phase I trial: clinical pharmacokinetics in plasma
Assay type: in vivo, human
Conditions: human, plasma, oral, 60 mg, Single dose day 1, 60 mg, n=5, Mean ± SD; read-out: T1/2 (converted)
measured.parameter: half-life (h)
Numbers only, in h.

Per the records, this compound ( Cc1c(C(=O)Nc2ccc(Oc3ccnc4cc(OCC(C)(C)O)ccc34)c(F)c2)c(=O)n(-c2ccccc2)n1C [CT053PTSA] ) has half-life equal to 24.7

====

Assay: Phase I trial: clinical pharmacokinetics in plasma
Assay type: in vivo, human
Settings: human, plasma, oral, 15 mg, Single dose day 1, 15 mg, n=1; read-out: AUC0-168
Description: A clinical pharmacokinetic study of CT053PTSA was performed for both single doses and multiple doses. […] Statistical analysis of CT053-treated tumors versus vehicle-treated tumors or versus nontreated tumors was performed by repeated-measures ANOVA. The data from the tumor xenograft models were expressed as the means ± standard error of the mean (SEM) and were plotted as a function of time. […]
measured.parameter: AUC(0-t) (ng·h/mL)
Give bare numbers, in ng·h/mL.

Per the records, this compound ( Cc1c(C(=O)Nc2ccc(Oc3ccnc4cc(OCC(C)(C)O)ccc34)c(F)c2)c(=O)n(-c2ccccc2)n1C [CT053PTSA] ) has AUC(0-t) equal to 6120

====

Assay: Phase I trial: clinical pharmacokinetics in plasma
Format: in vivo, human
Conditions: human, plasma, oral, 30 mg, Single dose day 1, 30 mg, n=1; read-out: AUC0-168
measured.parameter: AUC(0-t) (µg·h/mL)
One number for each entry, in µg·h/mL.

Per the records, this compound ( `Cc1c(C(=O)Nc2ccc(Oc3ccnc4cc(OCC(C)(C)O)ccc34)c(F)c2)c(=O)n(-c2ccccc2)n1C` ) has AUC(0-t) equal to 29.1
